target: purified recombinant human PARP (Homo sapiens, UniProt P09874); construct: purchased Trevigan (Gaithersburg, Md.); assay: PARP enzyme assay with [3H]NAD, scintillation counting; type: biochemical; conditions: examples table; read-out: IC50
Sequence (P09874 whole entry): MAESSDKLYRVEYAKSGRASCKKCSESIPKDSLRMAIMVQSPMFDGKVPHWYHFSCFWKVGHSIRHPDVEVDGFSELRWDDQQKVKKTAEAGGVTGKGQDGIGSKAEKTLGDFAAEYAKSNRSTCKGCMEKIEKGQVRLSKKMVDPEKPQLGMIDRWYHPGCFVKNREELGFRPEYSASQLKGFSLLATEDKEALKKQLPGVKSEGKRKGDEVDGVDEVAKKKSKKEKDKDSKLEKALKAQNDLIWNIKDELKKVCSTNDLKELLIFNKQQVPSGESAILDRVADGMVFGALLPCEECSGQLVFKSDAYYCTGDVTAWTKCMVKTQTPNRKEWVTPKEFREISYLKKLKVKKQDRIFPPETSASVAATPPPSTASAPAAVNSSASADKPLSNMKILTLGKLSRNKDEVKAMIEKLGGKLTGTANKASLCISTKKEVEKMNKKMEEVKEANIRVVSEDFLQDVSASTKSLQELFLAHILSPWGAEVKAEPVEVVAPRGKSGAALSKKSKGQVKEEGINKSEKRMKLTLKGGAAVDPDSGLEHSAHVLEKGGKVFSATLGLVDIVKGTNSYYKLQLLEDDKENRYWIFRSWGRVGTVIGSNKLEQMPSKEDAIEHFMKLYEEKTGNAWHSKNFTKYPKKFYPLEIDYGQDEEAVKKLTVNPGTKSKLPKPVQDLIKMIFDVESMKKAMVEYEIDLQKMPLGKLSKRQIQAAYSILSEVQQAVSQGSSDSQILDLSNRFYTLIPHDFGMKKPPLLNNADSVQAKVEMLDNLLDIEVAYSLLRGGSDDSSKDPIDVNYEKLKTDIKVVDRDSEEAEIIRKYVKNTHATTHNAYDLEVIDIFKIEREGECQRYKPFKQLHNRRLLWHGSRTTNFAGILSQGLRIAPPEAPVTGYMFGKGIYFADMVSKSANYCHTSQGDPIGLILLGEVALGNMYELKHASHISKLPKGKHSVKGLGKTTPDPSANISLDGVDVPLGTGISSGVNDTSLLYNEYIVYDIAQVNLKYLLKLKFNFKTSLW
Assign labels as follows, please: rule met for IC50 below 200 nM; rule not met for IC50 equal to or exceeding 200 nM.

In plain terms, does O=c1[nH]c2ccc(S(=O)(=O)N3CCN(CCN4CCOCC4)CC3)c3c2c2c(cccc12)C3 [Example 27] come in under 200 nM for IC50?
rule not met

In plain terms, does O=c1[nH]c2ccc(S(=O)(=O)N3CCN(c4ccncc4)CC3)c3c2c2c(cccc12)C3 [Example 24] come in under 200 nM for IC50?
rule not met

In plain terms, does CN(C)CCCN1CCN(S(=O)(=O)c2ccc3[nH]c(=O)c4cccc5c4c3c2C5)CC1 [Example 21] come in under 200 nM for IC50?
rule met

In plain terms, does O=c1[nH]c2ccc(S(=O)(=O)N3CCN(CCN4CCCC4)CC3)c3c2c2c(cccc12)C3 [Example 22] come in under 200 nM for IC50?
rule met

In plain terms, does O=C(CNCCN1CCOCC1)Nc1ccc2[nH]c(=O)c3cccc4c3c2c1C4 [Example 47] come in under 200 nM for IC50?
rule not met

In plain terms, does CN(C)CCN(C)S(=O)(=O)c1ccc2[nH]c(=O)c3cccc4c3c2c1C4 [Example 17] come in under 200 nM for IC50?
rule met

In plain terms, does CN1CCC(CN2CCN(S(=O)(=O)c3ccc4[nH]c(=O)c5cccc6c5c4c3C6)CC2)CC1 [Example 25] come in under 200 nM for IC50?
rule met

In plain terms, does O=C(CNCCN1CCCC1)Nc1ccc2[nH]c(=O)c3cccc4c3c2c1C4 [Example 11] come in under 200 nM for IC50?
rule met

In plain terms, does CN(C)CCCN(C)S(=O)(=O)c1ccc2[nH]c(=O)c3cccc4c3c2c1C4 [Example 18] come in under 200 nM for IC50?
rule met

In plain terms, does O=c1[nH]c2ccc(S(=O)(=O)N3CCN(Cc4ccncc4)CC3)c3c2c2c(cccc12)C3 [Example 28] come in under 200 nM for IC50?
rule not met

In plain terms, does CCN(CC)CCNCC(=O)Nc1ccc2[nH]c(=O)c3cccc4c3c2c1C4 [Example 45] come in under 200 nM for IC50?
rule met

In plain terms, does O=C(CN1CCN(CCN2CCOCC2)CC1)Nc1ccc2[nH]c(=O)c3cccc4c3c2c1C4 [Example 55] come in under 200 nM for IC50?
rule not met

In plain terms, does O=c1[nH]c2ccc(S(=O)(=O)NCCc3ccccn3)c3c2c2c(cccc12)C3 [Example 15] come in under 200 nM for IC50?
rule met

In plain terms, does O=c1[nH]c2ccc(S(=O)(=O)NCCN3CCCC3)c3c2c2c(cccc12)C3 [Example 5] come in under 200 nM for IC50?
rule met

In plain terms, does CCN(CC)CCNS(=O)(=O)c1ccc2[nH]c(=O)c3cccc4c3c2c1C4 [Example 20] come in under 200 nM for IC50?
rule met

In plain terms, does O=C(CN1CCC(N2CCCC2)CC1)Nc1ccc2[nH]c(=O)c3cccc4c3c2c1C4 [Example 44] come in under 200 nM for IC50?
rule met

In plain terms, does O=C(CN1CCN(Cc2ccccc2)CC1)Nc1ccc2[nH]c(=O)c3cccc4c3c2c1C4 [Example 33] come in under 200 nM for IC50?
rule not met

###

Assign pIC50 to each entry below.
target: purified recombinant human PARP (Homo sapiens); construct: purchased Trevigan (Gaithersburg, Md.); experiment: PARP enzyme assay with [3H]NAD, scintillation counting; format: biochemical; conditions: examples table; read-out: IC50
// pIC50: -log10(molar conc.)

State its pIC50 for this compound: O=c1[nH]c2ccc(S(=O)(=O)NN3CCOCC3)c3c2c2c(cccc12)C3 [Example 16]
7.04

State its pIC50 for this compound: O=C(CN1CCOCC1)Nc1ccc2[nH]c(=O)c3cccc4c3c2c1C4 [Example 34]
7.24

State its pIC50 for this compound: CN1CCC(CN2CCN(CC(=O)Nc3ccc4[nH]c(=O)c5cccc6c5c4c3C6)CC2)CC1 [Example 52]
7.02

State its pIC50 for this compound: CN(C)CCCN1CCN(S(=O)(=O)c2ccc3[nH]c(=O)c4cccc5c4c3c2C5)CC1 [Example 29]
6.96

State its pIC50 for this compound: O=c1[nH]c2ccc(S(=O)(=O)NCCCc3ccccc3)c3c2c2c(cccc12)C3 [Example 4]
5.95

State its pIC50 for this compound: O=C(CNCCCN1CCOCC1)Nc1ccc2[nH]c(=O)c3cccc4c3c2c1C4 [Example 37]
6.75

State its pIC50 for this compound: O=C(CN1CCN(Cc2ccncc2)CC1)Nc1ccc2[nH]c(=O)c3cccc4c3c2c1C4 [Example 54]
6.57

State its pIC50 for this compound: CN(C)CCN(C)CC(=O)Nc1ccc2[nH]c(=O)c3cccc4c3c2c1C4 [Example 57]
7.26

State its pIC50 for this compound: O=C(CN1CCN(CC2CCCO2)CC1)Nc1ccc2[nH]c(=O)c3cccc4c3c2c1C4 (stereo not drawn) [Example 35]
6.71

State its pIC50 for this compound: CN(C)CCN1CCN(CC(=O)Nc2ccc3[nH]c(=O)c4cccc5c4c3c2C5)CC1 [Example 50]
6.94

State its pIC50 for this compound: O=C(CNCCN1CCCCC1)Nc1ccc2[nH]c(=O)c3cccc4c3c2c1C4 [Example 38]
6.76

State its pIC50 for this compound: O=c1[nH]c2ccc(S(=O)(=O)N3CCN(CCN4CCCCC4)CC3)c3c2c2c(cccc12)C3 [Example 26]
6.50

State its pIC50 for this compound: O=C(CN1CCN(c2ccc(F)cc2F)CC1)Nc1ccc2[nH]c(=O)c3cccc4c3c2c1C4 [Example 41]
6.47

State its pIC50 for this compound: O=c1[nH]c2ccc(S(=O)(=O)NCCCN3CCOCC3)c3c2c2c(cccc12)C3 [Example 6]
7.20

State its pIC50 for this compound: CCN(CC)CCCNCC(=O)Nc1ccc2[nH]c(=O)c3cccc4c3c2c1C4 [Example 46]
6.93

State its pIC50 for this compound: O=C(CNCCCc1ccccc1)Nc1ccc2[nH]c(=O)c3cccc4c3c2c1C4 [Example 36]
6.73

State its pIC50 for this compound: CN1CCN(CCCNS(=O)(=O)c2ccc3[nH]c(=O)c4cccc5c4c3c2C5)CC1 [Example 19]
7.28

State its pIC50 for this compound: CCN(CC)CCNS(=O)(=O)c1ccc2[nH]c(=O)c3cccc4c3c2c1C4 [Example 13]
7.32

State its pIC50 for this compound: O=C(CN1CCN(c2ccc(F)cc2)CC1)Nc1ccc2[nH]c(=O)c3cccc4c3c2c1C4 [Example 40]
6.64

State its pIC50 for this compound: CCOC(=O)C1CCCN(S(=O)(=O)c2ccc3[nH]c(=O)c4cccc5c4c3c2C5)C1 (stereo not drawn) [Example 2]
6.86

State its pIC50 for this compound: O=C(CN1CCN(c2ccccn2)CC1)Nc1ccc2[nH]c(=O)c3cccc4c3c2c1C4 [Example 42]
6.80

State its pIC50 for this compound: O=c1[nH]c2ccc(S(=O)(=O)N3CCN(c4ccc(F)cc4F)CC3)c3c2c2c(cccc12)C3 [Example 9]
6.68

State its pIC50 for this compound: CN(C)CCCN(C)CC(=O)Nc1ccc2[nH]c(=O)c3cccc4c3c2c1C4 [Example 48]
6.84

State its pIC50 for this compound: CN1CCN(CCCNS(=O)(=O)c2ccc3[nH]c(=O)c4cccc5c4c3c2C5)CC1 [Example 12]
7.19

State its pIC50 for this compound: O=c1[nH]c2ccc(S(=O)(=O)N3CCN(CC4CCCO4)CC3)c3c2c2c(cccc12)C3 (stereo not drawn) [Example 3]
6.61

State its pIC50 for this compound: O=C(CN1CCN(c2ccc(C(F)(F)F)cc2)CC1)Nc1ccc2[nH]c(=O)c3cccc4c3c2c1C4 [Example 39]
6.66

State its pIC50 for this compound: CN1CCN(CC(=O)Nc2ccc3[nH]c(=O)c4cccc5c4c3c2C5)CC1 [Example 31]
7.35

State its pIC50 for this compound: CN1CCN(NS(=O)(=O)c2ccc3[nH]c(=O)c4cccc5c4c3c2C5)CC1 [Example 10]
6.89

State its pIC50 for this compound: O=c1[nH]c2ccc(S(=O)(=O)N3CCN(c4ccc(F)cc4)CC3)c3c2c2c(cccc12)C3 [Example 8]
6.47

State its pIC50 for this compound: O=c1[nH]c2ccc(S(=O)(=O)N3CCN(CCN4CCCC4)CC3)c3c2c2c(cccc12)C3 [Example 30]
6.58

State its pIC50 for this compound: O=c1[nH]c2ccc(S(=O)(=O)N3CCN(c4ccc(C(F)(F)F)cc4)CC3)c3c2c2c(cccc12)C3 [Example 7]
6.57

State its pIC50 for this compound: CN1CCC(N2CCN(CC(=O)Nc3ccc4[nH]c(=O)c5cccc6c5c4c3C6)CC2)CC1 [Example 53]
6.92

State its pIC50 for this compound: CN(C)CCCN1CCN(CC(=O)Nc2ccc3[nH]c(=O)c4cccc5c4c3c2C5)CC1 [Example 49]
7.14
